System: Saccharomyces cerevisiae
Test: protein stability index of tFT-peptide fusion (C-terminal peptide) (PSI (0-1 scale)); higher = more stable (slower turnover)
Details: genetic background: wild type; temperature: 30 C
The following sequences are shown together with reported protein stability index values.

record_sequence: GVVWMSCGGGGG
target_or_test_system: Saccharomyces cerevisiae
protein stability index: 0.768

record_sequence: LQPPAPPSPQSD
target_or_test_system: Saccharomyces cerevisiae
protein stability index: 0.702

record_sequence: GSGVGACRGVKV
target_or_test_system: Saccharomyces cerevisiae
protein stability index: 0.685

record_sequence: GIKLNVVYILLG
target_or_test_system: Saccharomyces cerevisiae
protein stability index: 0.482

record_sequence: FFCCFVFVLGFC
target_or_test_system: Saccharomyces cerevisiae
protein stability index: 0.419

record_sequence: GPSPFCTIRLKN
target_or_test_system: Saccharomyces cerevisiae
protein stability index: 0.655

record_sequence: GGFCRLRYLVCP
target_or_test_system: Saccharomyces cerevisiae
protein stability index: 0.544

record_sequence: SFWNLFAGWYVI
target_or_test_system: Saccharomyces cerevisiae
protein stability index: 0.685

record_sequence: VRRHPQYPLLRV
target_or_test_system: Saccharomyces cerevisiae
protein stability index: 0.541

record_sequence: KKEEKKKNKNDR
target_or_test_system: Saccharomyces cerevisiae
protein stability index: 0.679

record_sequence: WLFRGELCGGAN
target_or_test_system: Saccharomyces cerevisiae
protein stability index: 0.588

record_sequence: LLFVLWLSFFVL
target_or_test_system: Saccharomyces cerevisiae
protein stability index: 0.346

record_sequence: LRHSCSTYRIFS
target_or_test_system: Saccharomyces cerevisiae
protein stability index: 0.683

record_sequence: KGRGEVGTRRYG
target_or_test_system: Saccharomyces cerevisiae
protein stability index: 0.638

record_sequence: AVGGVFVSSGGL
target_or_test_system: Saccharomyces cerevisiae
protein stability index: 0.691

record_sequence: GKKTTQELGKTK
target_or_test_system: Saccharomyces cerevisiae
protein stability index: 0.803

record_sequence: LSLPSPRPPPSP
target_or_test_system: Saccharomyces cerevisiae
protein stability index: 0.713

record_sequence: TVCSWSALSRFM
target_or_test_system: Saccharomyces cerevisiae
protein stability index: 0.587

record_sequence: RGGPPPCPLLAA
target_or_test_system: Saccharomyces cerevisiae
protein stability index: 0.51

record_sequence: PLSPSPPPAFPA
target_or_test_system: Saccharomyces cerevisiae
protein stability index: 0.794

record_sequence: GLLSKVEFEEYQ
target_or_test_system: Saccharomyces cerevisiae
protein stability index: 0.655

record_sequence: QKCNPGKRVDRT
target_or_test_system: Saccharomyces cerevisiae
protein stability index: 0.692

record_sequence: KREQKPHPKLKL
target_or_test_system: Saccharomyces cerevisiae
protein stability index: 0.568

record_sequence: ENKKKKKNIEKK
target_or_test_system: Saccharomyces cerevisiae
protein stability index: 0.702

record_sequence: SECLCVRDRCGG
target_or_test_system: Saccharomyces cerevisiae
protein stability index: 0.685

record_sequence: YCTMHLQLLQHS
target_or_test_system: Saccharomyces cerevisiae
protein stability index: 0.578

record_sequence: KKKKTVHKKNRR
target_or_test_system: Saccharomyces cerevisiae
protein stability index: 0.699

record_sequence: KTVKNGKEVKIH
target_or_test_system: Saccharomyces cerevisiae
protein stability index: 0.635

record_sequence: CLYATQFWGRYG
target_or_test_system: Saccharomyces cerevisiae
protein stability index: 0.434

record_sequence: DKNRNKKKKYER
target_or_test_system: Saccharomyces cerevisiae
protein stability index: 0.641

record_sequence: RLMKQKKMKRRK
target_or_test_system: Saccharomyces cerevisiae
protein stability index: 0.724

record_sequence: VKTGIKQSLTEP
target_or_test_system: Saccharomyces cerevisiae
protein stability index: 0.698

record_sequence: LVVSLSYSFRSV
target_or_test_system: Saccharomyces cerevisiae
protein stability index: 0.585

record_sequence: VHRRRVSVGGGA
target_or_test_system: Saccharomyces cerevisiae
protein stability index: 0.721

record_sequence: WRLCWWVVESGG
target_or_test_system: Saccharomyces cerevisiae
protein stability index: 0.639

record_sequence: VDGRIYIGIISR
target_or_test_system: Saccharomyces cerevisiae
protein stability index: 0.677

record_sequence: GRLIGICECLSV
target_or_test_system: Saccharomyces cerevisiae
protein stability index: 0.622

record_sequence: CLTTVCHRRVRC
target_or_test_system: Saccharomyces cerevisiae
protein stability index: 0.655

record_sequence: SPPRPPPVPPPP
target_or_test_system: Saccharomyces cerevisiae
protein stability index: 0.617

record_sequence: SGIEHVLIVYDT
target_or_test_system: Saccharomyces cerevisiae
protein stability index: 0.679

record_sequence: AASRVIYLLNLF
target_or_test_system: Saccharomyces cerevisiae
protein stability index: 0.345

record_sequence: VRICVVLRVCWW
target_or_test_system: Saccharomyces cerevisiae
protein stability index: 0.256

record_sequence: NLCRFHFRNRFS
target_or_test_system: Saccharomyces cerevisiae
protein stability index: 0.565

record_sequence: VFTGYSAFLLLC
target_or_test_system: Saccharomyces cerevisiae
protein stability index: 0.144

record_sequence: PPPRLAPTLLPA
target_or_test_system: Saccharomyces cerevisiae
protein stability index: 0.6

record_sequence: LVRRTLWGSGCL
target_or_test_system: Saccharomyces cerevisiae
protein stability index: 0.666

record_sequence: VSVSRGTNCCYD
target_or_test_system: Saccharomyces cerevisiae
protein stability index: 0.686

record_sequence: LLSASPASLSFL
target_or_test_system: Saccharomyces cerevisiae
protein stability index: 0.706

record_sequence: PPPHTRVIPSSP
target_or_test_system: Saccharomyces cerevisiae
protein stability index: 0.676

record_sequence: CVVLCLFCWCML
target_or_test_system: Saccharomyces cerevisiae
protein stability index: 0.347

record_sequence: RALSPFPSILPS
target_or_test_system: Saccharomyces cerevisiae
protein stability index: 0.719

record_sequence: PPPPLPATPGAS
target_or_test_system: Saccharomyces cerevisiae
protein stability index: 0.686

record_sequence: VVLWGAVSIVRT
target_or_test_system: Saccharomyces cerevisiae
protein stability index: 0.616

record_sequence: VMCECALLVQSR
target_or_test_system: Saccharomyces cerevisiae
protein stability index: 0.563

record_sequence: PSPPPAPLHSPL
target_or_test_system: Saccharomyces cerevisiae
protein stability index: 0.704

record_sequence: DDGGQPKVLLCV
target_or_test_system: Saccharomyces cerevisiae
protein stability index: 0.669

record_sequence: GEAGGEESEEGY
target_or_test_system: Saccharomyces cerevisiae
protein stability index: 0.676

record_sequence: PFSGLPVRCELC
target_or_test_system: Saccharomyces cerevisiae
protein stability index: 0.672

record_sequence: RSPSTRHVGLSW
target_or_test_system: Saccharomyces cerevisiae;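 also: PSI is a weighted mean of sequencing reads over stability bins, variants kept only with over 10 reads, mCherry proximal and sfGFP distal, peptide attached via GGGS linker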
protein stability index: 0.67
